experiment-description: Cytotoxicity against human HepG2 cells assessed as reduction in cell viability at 200 and 300 uM incubated for 3 hrs by MTT assay
Assay type: cell-based
conditions-used: read-out: INH
metric: cytotoxicity at 3 h

Prompt: Can you share its cytotoxicity at 3 h? I mean this compound: OC[C@H]1O[C@@H](c2csc(-c3ccc4ccccc4c3)n2)[C@H](O)[C@@H](O)[C@@H]1O
Completion: < 10%

====

experiment-description: Inhibition of rabbit muscle GPb using Glc-1-P as substrate incubated for 15 mins
Design: species or system Oryctolagus cuniculus
metric: Ki (µM)
// units = µM; emit number, no label

Prompt: Can you share its Ki? I mean this compound: OC[C@H]1O[C@@H](n2nnc(-c3ccccc3)n2)[C@H](O)[C@@H](O)[C@@H]1O
Completion: 162

====

subject-of-test: Glycogen phosphorylase, liver form (Homo sapiens)
Sequence (P06737 whole entry): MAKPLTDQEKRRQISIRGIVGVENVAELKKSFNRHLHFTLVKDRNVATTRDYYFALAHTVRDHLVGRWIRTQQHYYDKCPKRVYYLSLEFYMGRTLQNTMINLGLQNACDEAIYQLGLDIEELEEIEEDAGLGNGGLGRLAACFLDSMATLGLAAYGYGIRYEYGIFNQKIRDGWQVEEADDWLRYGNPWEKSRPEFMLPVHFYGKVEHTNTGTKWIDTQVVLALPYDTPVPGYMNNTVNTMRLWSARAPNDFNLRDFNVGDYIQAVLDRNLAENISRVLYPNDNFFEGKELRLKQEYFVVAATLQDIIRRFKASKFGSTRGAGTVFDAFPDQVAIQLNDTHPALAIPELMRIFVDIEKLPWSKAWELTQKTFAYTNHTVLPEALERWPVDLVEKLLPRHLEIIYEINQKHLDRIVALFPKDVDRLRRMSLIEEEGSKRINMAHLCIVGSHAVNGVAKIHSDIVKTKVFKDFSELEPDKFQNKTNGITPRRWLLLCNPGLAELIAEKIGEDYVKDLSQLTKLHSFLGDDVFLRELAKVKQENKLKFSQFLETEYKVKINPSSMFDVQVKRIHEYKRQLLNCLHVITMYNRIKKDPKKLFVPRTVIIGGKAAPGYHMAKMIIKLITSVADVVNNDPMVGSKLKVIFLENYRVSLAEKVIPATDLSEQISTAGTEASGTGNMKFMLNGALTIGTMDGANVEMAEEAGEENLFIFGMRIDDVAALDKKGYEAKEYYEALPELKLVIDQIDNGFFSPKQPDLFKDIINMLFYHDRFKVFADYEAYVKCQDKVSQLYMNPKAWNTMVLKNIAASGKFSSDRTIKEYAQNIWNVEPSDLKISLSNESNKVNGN
metric: Ki (µM)
// units = µM; emit number, no label

Prompt: Can you share its Ki? I mean this compound: OC[C@H]1O[C@@H](c2nc(-c3ccccc3)cs2)[C@H](O)[C@@H](O)[C@@H]1O
Completion: 180

Prompt: Then OC[C@H]1O[C@@H](n2nnc(-c3ccccc3)n2)[C@H](O)[C@@H](O)[C@@H]1O ?
Completion: 134

Prompt: Then OC[C@H]1O[C@@H](c2csc(-c3ccc4ccccc4c3)n2)[C@H](O)[C@@H](O)[C@@H]1O ?
Completion: 43.6

Prompt: Then OC[C@H]1O[C@@H](c2nc(-c3ccc4ccccc4c3)cs2)[C@H](O)[C@@H](O)[C@@H]1O ?
Completion: 78

====

experiment-description: Inhibition of rabbit muscle GPa using Glc-1-P as substrate incubated for 15 mins
Set-up: species or system Oryctolagus cuniculus
So I've got a bunch of molecules here, and I need their pKi values.
Give only the number. pKi is defined as minus log10 of concentration in molar units.

Prompt: Can you share its pKi? I mean this molecule: OC[C@H]1O[C@@H](c2nc(-c3ccccc3)n[nH]2)[C@H](O)[C@@H](O)[C@@H]1O
Completion: 5.76

Prompt: Then OC[C@H]1O[C@@H](c2csc(-c3ccc4ccccc4c3)n2)[C@H](O)[C@@H](O)[C@@H]1O ?
Completion: 4.55

Prompt: Then OC[C@H]1O[C@@H](c2c[nH]c(-c3ccc4ccccc4c3)n2)[C@H](O)[C@@H](O)[C@@H]1O ?
Completion: 5.80

Prompt: Then OC[C@H]1O[C@@H](c2csc(-c3ccccc3)n2)[C@H](O)[C@@H](O)[C@@H]1O ?
Completion: 4.12

Prompt: Then OC[C@H]1O[C@@H](c2nc(-c3ccc4ccccc4c3)cs2)[C@H](O)[C@@H](O)[C@@H]1O ?
Completion: 4.16

Prompt: Then OC[C@H]1O[C@@H](n2nnc(-c3ccccc3)n2)[C@H](O)[C@@H](O)[C@@H]1O ?
Completion: 3.84

Prompt: Then OC[C@H]1O[C@@H](c2c[nH]c(-c3ccccc3)n2)[C@H](O)[C@@H](O)[C@@H]1O ?
Completion: 4.75

Prompt: Then OC[C@H]1O[C@@H](c2nc(-c3ccccc3)cs2)[C@H](O)[C@@H](O)[C@@H]1O ?
Completion: 3.80
